These entries and their values trace back to patent US6355785.

Can you tell me pIC50 for the items I'm about to list?
biological target: HIV-1 reverse transcriptase (Human immunodeficiency virus 1, UniProt P03366;P03366 P03366:600-1159,P03366:600-1039); test: inhibition; printed as ID50
Bear in mind: pIC50 is minus log10 of a mol/L concentration; give just that figure.

Any idea what pIC50 was measured for GATCCATGTCAGTGACAC (ssDNA, PS all linkages, 3'-amine) [1232 random GATC] ?
7.35

Any idea what pIC50 was measured for GTGGTGGGTGGGTGGGTGGTGGGTGGTGGTTGTGGGTGGGTGGTG (ssDNA, PS all linkages, 3'-amine) [I100-21] ?
8.40

Any idea what pIC50 was measured for GTGGTGGGTGGGTGGGTGGTGGGTGGTGGTTGTGGGTGGGTGGTG (ssDNA, phosphodiester, 3'-amine) [I100-07] ?
5.60

Any idea what pIC50 was measured for GGGTGGGTGGGTGGGTGG (ssDNA, PS all linkages, 3'-amine) [1174] ?
7.81

Any idea what pIC50 was measured for GTTGGGGGTTGTTGGTGGGGTGGTGG (ssDNA, phosphodiester, 3'-propanolamine) [I100-00] ?
5.30

Any idea what pIC50 was measured for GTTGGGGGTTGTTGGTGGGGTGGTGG (ssDNA, PS all linkages, 3'-amine) [I100-12] ?
7.82
